FYI, the data here is from patent US9040488B2.

Assign log10 EC50 to each entry below.
Test system: Tacaribe virus (21573 strain)
Type: cell-based
Log10 applied to EC50; unit prior to transform: nM.

OC[C@@H]1[C@@H](O)[C@H](O)[C@@H](O)CN1CCCCCC1(O)CCCCC1 [OSL95-II, N-pentyl-(1-hydroxycyclohexyl)-DNJ, reference compound]
4.46

Provide the reported log10 EC50 of each entry below, same order.
1. C[C@@H]1CCCCC1OCCCCCCN1C[C@H](O)[C@@H](O)[C@H](O)[C@H]1CO (some centres unmarked) [PBDNJ0804]
2. Cc1ccc(C)c(OCCCCCCN2C[C@H](O)[C@@H](O)[C@H](O)[C@H]2CO)c1 [PBDNJ0803]
3. CCCCCCCCCN1C[C@H](O)[C@@H](O)[C@H](O)[C@H]1CO [NNDNJ, N-nonyl-DNJ, reference compound]

Ans.
3.18
3.30
3.48

Log: Tacaribe virus (21573 strain), molecule CC(=O)O.CC1CCC(OCCCCCCN2C[C@H](O)[C@@H](O)[C@H](O)[C@H]2CO)CC1 (some centres unmarked) [CM-9-78] , log10 EC50 = 4.00
